Please respond with reported IC50; IL-4 250 pM; Ramos.2G6.4C10/STAT3-luc for every item in the list.
# tested-on: T1, human IL2Rγ (endogenously expressed on cells) (human, UniProt P31785 23-369)
# T1 sequence (looked up): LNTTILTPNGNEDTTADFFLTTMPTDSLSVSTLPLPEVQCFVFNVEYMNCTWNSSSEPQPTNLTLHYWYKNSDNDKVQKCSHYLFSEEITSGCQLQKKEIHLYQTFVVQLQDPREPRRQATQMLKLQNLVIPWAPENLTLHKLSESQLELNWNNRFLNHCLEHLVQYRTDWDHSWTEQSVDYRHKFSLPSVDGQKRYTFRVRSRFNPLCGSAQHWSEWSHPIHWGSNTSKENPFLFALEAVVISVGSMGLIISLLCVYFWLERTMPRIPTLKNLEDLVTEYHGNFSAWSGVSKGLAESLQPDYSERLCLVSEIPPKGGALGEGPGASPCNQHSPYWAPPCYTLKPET
# protocol: cell-based or functional assay
Numbers only, in M.

{"columns": ["binder", "result"],
 "data": [
  ["H4H12857P (antibody, human IgG4 S228P, kappa, V domains shown, human IgG4; also called REGN9432) VH: EVQLVESGGGVVRPGGSLRLSCAASGFTFDDFDMSWVRQGPGKGLEWVSGINWHGSSTGYADSVKGRFTISRDNAKNSLYLQMSSLRAEDTALYHCVRGGTIVGATTPLDYWGQGTLVTVSS VL: DIQMTQSPSSLSASVGDRVTMTCRASRTISSYLSWYQQKSGKVPNLLIFGASSLQSGVPSRFSASGSGTDFTLIISSLQPEDFATYYCQQSYSSPLTFGGGTKVEIKR", "3.8e-08"]
]}

Next, consider the following binder.
Lab book: IC50; IL-4 250 pM; Ramos.2G6.4C10/STAT3-luc of H4H12863P (antibody, human IgG4 S228P, kappa, V domains shown, human IgG4) VH: QVQLVESGGGVVQPGRSLRLSCTASGFTFRSYDMYWVRQAPGKGLEWVSVITYDGNNKYYADSVKGRFTISRDNSKNTLFLQMSSLRPEDTAVYYCAKRGLIWVGESFDYWGQGTLVTVSS VL: DIQMTQSPSTLSASVGDRVTITCRASQSINSWLAWYQQKPGKAPNLLIYKASSLESGVPSRFSGSGSGTEFTLTISSLQPDDFATYYCQQYKSYSWTFGQGTKVEIKR noted as 3.6e-10

Where do these numbers come from? They come from patent US20200247894A1.
